Exercise: state measured protein stability index for each of the variants provided.
B1: PBXIP1 (parent)
chain: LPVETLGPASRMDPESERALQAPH

- Variants of: B1
- test_details: protein stability index of a GFP-peptide fusion (GPS, HEK-293T) (PSI 1-6); higher = more stable;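 further: lentivirally expressed fusions sorted by FACS into six bins by GFP to DsRed ratio, PSI derived from sequencing read proportions per bin multiplied by bin number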
- condition_summary: c terminus: a fixed tail appended
Lab note: record the figure alone, no unit after it.

Prompt line: Consider the variant shown here: L1K What is its recorded protein stability index?
Response line: 5.15

Prompt line: Param item = T5S ; retrieve measured protein stability index.
Response line: 4.68

Prompt line: Suppose we examine the variant R18L ; what protein stability index value has been reported?
Response line: 3.69

Prompt line: Suppose we examine the variant L20P ; what protein stability index value has been reported?
Response line: 4.72

Prompt line: Need protein stability index, item A19M
Response line: 4.21

Prompt line: Please look up its protein stability index: E17A
Response line: 3.65

Prompt line: Which protein stability index is listed for D13R ?
Response line: 2.62

Prompt line: Look at this variant and give its reported protein stability index. G7I
Response line: 4.76

Prompt line: Data request, read-out protein stability index, for E15V
Response line: 4.28

Prompt line: I have this variant here, L6K , and I need its recorded protein stability index.
Response line: 5.03

Prompt line: If you can, please state the reported protein stability index value of E17Y .
Response line: 3.92

Prompt line: protein stability index lookup needed for M12W , thanks.
Response line: 4.17

Prompt line: Suppose we examine the variant E15D ; what protein stability index value has been reported?
Response line: 5.08

Prompt line: Quick one: protein stability index of P8G ?
Response line: 5.57

Prompt line: Dear colleague, I am looking for the recorded protein stability index of the following variant: H24C
Response line: 4.05

Prompt line: I am curious: what protein stability index value has been reported for S16L ?
Response line: 2.83

Prompt line: Look up protein stability index: G7W
Response line: 4.63

Prompt line: Fill in: protein stability index of D13Q is ___
Response line: 3.7

Prompt line: What value of measured protein stability index is listed for L20E ?
Response line: 4.81

Prompt line: Which value of protein stability index has been reported for R11W in the records?
Response line: 3.7

Prompt line: Which value of protein stability index has been reported for A9N in the records?
Response line: 4.63

Prompt line: Please look up its protein stability index: P14S
Response line: 4.09
